Cited source for all entries: patent US11452725B2

- TESTED SYSTEM: DDR1 (Homo sapiens)
- Sequence (Q08345 19-913): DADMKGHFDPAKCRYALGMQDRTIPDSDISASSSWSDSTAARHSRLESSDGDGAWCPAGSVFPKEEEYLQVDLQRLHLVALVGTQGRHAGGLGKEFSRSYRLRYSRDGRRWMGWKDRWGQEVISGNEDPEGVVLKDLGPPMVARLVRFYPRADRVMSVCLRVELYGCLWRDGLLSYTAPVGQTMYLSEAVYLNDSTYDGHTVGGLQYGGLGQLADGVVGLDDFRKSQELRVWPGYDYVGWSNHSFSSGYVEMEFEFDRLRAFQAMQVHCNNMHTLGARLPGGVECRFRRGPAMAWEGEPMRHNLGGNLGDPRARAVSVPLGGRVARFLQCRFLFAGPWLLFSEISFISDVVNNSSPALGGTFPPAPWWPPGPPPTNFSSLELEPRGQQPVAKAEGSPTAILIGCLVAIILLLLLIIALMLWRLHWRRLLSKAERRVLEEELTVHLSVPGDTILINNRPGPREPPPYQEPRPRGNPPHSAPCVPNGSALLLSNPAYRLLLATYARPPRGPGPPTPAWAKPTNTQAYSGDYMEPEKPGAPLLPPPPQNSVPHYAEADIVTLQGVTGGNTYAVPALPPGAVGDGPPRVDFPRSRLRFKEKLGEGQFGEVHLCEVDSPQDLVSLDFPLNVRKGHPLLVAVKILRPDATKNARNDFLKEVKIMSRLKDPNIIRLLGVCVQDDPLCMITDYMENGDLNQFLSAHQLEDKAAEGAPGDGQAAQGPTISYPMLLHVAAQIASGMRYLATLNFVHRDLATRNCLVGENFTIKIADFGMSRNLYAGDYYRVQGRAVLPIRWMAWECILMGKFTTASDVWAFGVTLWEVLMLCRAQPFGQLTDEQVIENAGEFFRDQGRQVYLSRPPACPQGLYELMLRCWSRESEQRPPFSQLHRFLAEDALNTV
PARAMETER: IC50 (nM)

[[record]]
record_smiles = "C[C@H]1CNC(=O)c2cnn3ccc(nc23)N[C@H](C)c2cc(F)ccc2O1"
unit_tag = "nM"
recorded_number = 5.7


---

- TESTED SYSTEM: RET (Homo sapiens, UniProt P07949)
- Sequence (P07949 29-1114): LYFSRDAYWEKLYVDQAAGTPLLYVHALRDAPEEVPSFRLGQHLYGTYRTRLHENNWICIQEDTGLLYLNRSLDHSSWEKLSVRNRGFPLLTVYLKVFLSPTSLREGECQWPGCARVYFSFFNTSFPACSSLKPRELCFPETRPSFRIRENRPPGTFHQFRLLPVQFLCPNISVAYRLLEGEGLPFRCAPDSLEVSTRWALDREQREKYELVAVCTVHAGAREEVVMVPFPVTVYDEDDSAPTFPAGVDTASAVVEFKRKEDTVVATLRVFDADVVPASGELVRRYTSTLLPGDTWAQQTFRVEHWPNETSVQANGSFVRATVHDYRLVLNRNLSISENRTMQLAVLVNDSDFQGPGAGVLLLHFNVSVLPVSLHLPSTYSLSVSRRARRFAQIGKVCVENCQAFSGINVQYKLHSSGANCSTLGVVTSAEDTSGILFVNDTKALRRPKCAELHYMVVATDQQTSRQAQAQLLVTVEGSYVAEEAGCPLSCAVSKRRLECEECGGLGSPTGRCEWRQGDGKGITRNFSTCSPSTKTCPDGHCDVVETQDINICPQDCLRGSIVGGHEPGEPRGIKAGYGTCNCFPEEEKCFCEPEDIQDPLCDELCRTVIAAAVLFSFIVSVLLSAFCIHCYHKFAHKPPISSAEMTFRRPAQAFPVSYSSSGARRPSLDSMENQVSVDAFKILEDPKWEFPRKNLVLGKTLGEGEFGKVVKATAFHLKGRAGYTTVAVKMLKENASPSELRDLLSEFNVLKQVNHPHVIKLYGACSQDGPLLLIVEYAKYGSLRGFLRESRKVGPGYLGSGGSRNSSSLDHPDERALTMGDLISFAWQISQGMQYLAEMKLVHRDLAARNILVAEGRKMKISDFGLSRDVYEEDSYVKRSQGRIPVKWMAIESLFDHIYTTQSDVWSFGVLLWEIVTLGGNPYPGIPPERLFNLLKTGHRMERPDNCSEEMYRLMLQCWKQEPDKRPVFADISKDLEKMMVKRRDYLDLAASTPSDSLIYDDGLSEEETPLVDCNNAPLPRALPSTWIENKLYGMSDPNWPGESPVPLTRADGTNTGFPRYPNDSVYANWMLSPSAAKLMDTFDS
pIC50: −log10 of the molar value.
PARAMETER: pIC50

[[record]]
record_smiles = "C[C@H]1CNC(=O)c2cnn3ccc(nc23)N[C@H](C)c2cc(F)ccc2O1"
tested_system = "RET (Homo sapiens, UniProt P07949)"
recorded_number = 7.33


---

- Tested on: Ba/F3 TPR-ALK L1196M cell line
- ASSAY SUMMARY: Cell proliferation assay at Advanced Cellular Dynamics (CellTiter-Glo)
- Assay type: cell-based
- STUDY CONDITIONS: Mus musculus, BaF3, 48 hours
pIC50: −log10 of the molar value.
PARAMETER: pIC50

[[record]]
compound = "C[C@H]1CNC(=O)c2cnn3ccc(nc23)N[C@H](C)c2cc(F)ccc2O1 [Compound 1]"
recorded_number = 7.87

